Reference for the values: patent EP4725957A1

Test system: Acinetobacter baumannii NCTC 13304 (OXA-27)
Type: cell-based
CONDITION SUMMARY: NCTC 13304
Bridge positions count the residues as written; N and C are the ends. Square brackets hold non-standard residues; d marks the D form. Peptide text beside a SMILES is read from it. * marks the point of attachment. Dab(CH2SO3H) = N[C@@H](CCNCS(=O)(=O)O)C(=O)O; Heptanoyl(6-Me) = CC(C)CCCCC(=O)*; Sulfomethyl = O=S(=O)(O)C*; Nonanoyl = CCCCCCCCC(=O)*; Orn = NCCC[C@H](N)C(=O)O; Dab = NCC[C@H](N)C(=O)O
METRIC NAME: MIC (µg/mL)
Kindly answer with a numeric value in µg/mL, unit omitted.

[[record]]
molecule = "CC(C)CCCCC(=O)N[C@@H](CCN)C(=O)N[C@H](C(=O)N[C@H](CO)C(=O)N[C@H]1CCNC(=O)[C@H]([C@@H](C)O)NC(=O)[C@H](CCN)NC(=O)[C@H](CCNCS(=O)(=O)O)NC(=O)[C@H]([C@@H](C)O)NC(=O)[C@@H](Cc2ccccc2)NC(=O)[C@H](CCN)NC1=O)[C@@H](C)O [Compound 110] ({Heptanoyl(6-Me)}-[Dab]T[dS][Dab][Dab][dF]T[Dab(CH2SO3H)][Dab]T; lactam 4-C)"
units = "µg/mL"
result_value = 0.06

[[record]]
molecule = "CCCCCCCCC(=O)N[C@@H](CCN)C(=O)N[C@H](C(=O)N[C@H](CO)C(=O)N[C@H]1CCNC(=O)[C@H]([C@@H](C)O)NC(=O)[C@H](CCN)NC(=O)[C@H](CCN)NC(=O)[C@H]([C@@H](C)O)NC(=O)[C@@H](Cc2ccccc2)NC(=O)[C@H](CCCN)NC1=O)[C@@H](C)O [Compound 70] (Nonanoyl-[Dab]T[dS][Dab][Orn][dF]T[Dab][Dab]T; lactam 4-C)"
units = "µg/mL"
result_value = 0.25


Which MIC reading was recorded for the molecule CC(C)CCCCC(=O)N[C@@H](CCN)C(=O)N[C@H](C(=O)N[C@H](CO)C(=O)N[C@H]1CCNC(=O)[C@H]([C@@H](C)O)NC(=O)[C@H](CCN)NC(=O)[C@H](CCN)NC(=O)[C@H]([C@@H](C)O)NC(=O)[C@@H](Cc2ccccc2)NC(=O)[C@H](CCCN)NC1=O)[C@@H](C)O [Compound 67] ({Heptanoyl(6-Me)}-[Dab]T[dS][Dab][Orn][dF]T[Dab][Dab]T; lactam 4-C) ?
0.25

Which MIC reading was recorded for the molecule CC(C)CCCCC(=O)N[C@@H](CCN)C(=O)N[C@H](C(=O)N[C@H](CO)C(=O)N[C@H]1CCNC(=O)[C@H]([C@@H](C)O)NC(=O)[C@H](CCN)NC(=O)[C@H](CCN)NC(=O)[C@H]([C@@H](C)OCS(=O)(=O)O)NC(=O)[C@@H](Cc2ccccc2)NC(=O)[C@H](CCN)NC1=O)[C@@H](C)O [Compound 105] ({Heptanoyl(6-Me)}-[Dab]T[dS][Dab][Dab][dF]T(Sulfomethyl)[Dab][Dab]T; lactam 4-C) ?
0.06

---

Tested on: Pseudomonas aeruginosa PAE19-3
Type: cell-based
CONDITION SUMMARY: PAE19-3
Bridge positions count the residues as written; N and C are the ends. Square brackets hold non-standard residues; d marks the D form. Peptide text beside a SMILES is read from it. * marks the point of attachment. Dab(CH2SO3H) = N[C@@H](CCNCS(=O)(=O)O)C(=O)O; Heptanoyl(6-Me) = CC(C)CCCCC(=O)*; Nonanoyl = CCCCCCCCC(=O)*; X1 = CC[C@H](C)CCCCC(=O)*; Octanoyl = CCCCCCCC(=O)*; Orn = NCCC[C@H](N)C(=O)O; dDap = NC[C@@H](N)C(=O)O; Dab = NCC[C@H](N)C(=O)O; Dap = NC[C@H](N)C(=O)O
MIC overview
Kindly answer with a numeric value in µg/mL, unit omitted.

Use these answered entries as a reference point.
[[record]]
compound = "CCCCCCCCC(=O)N[C@@H](CCN)C(=O)N[C@H](C(=O)N[C@H](CO)C(=O)N[C@H]1CCNC(=O)[C@H]([C@@H](C)O)NC(=O)[C@H](CCN)NC(=O)[C@H](CCN)NC(=O)[C@H]([C@@H](C)O)NC(=O)[C@@H](Cc2ccccc2)NC(=O)[C@H](CN)NC1=O)[C@@H](C)O [Compound 65] (Nonanoyl-[Dab]T[dS][Dab][Dap][dF]T[Dab][Dab]T; lactam 4-C)"
measured_on = "Pseudomonas aeruginosa PAE19-3"
metric_name = "MIC"
result_value = 8

[[record]]
compound = "CCCCCCCC(=O)N[C@@H](CCN)C(=O)N[C@H](C(=O)N[C@H](CO)C(=O)N[C@H]1CCNC(=O)[C@H]([C@@H](C)O)NC(=O)[C@H](CCN)NC(=O)[C@H](CCN)NC(=O)[C@H]([C@@H](C)O)NC(=O)[C@@H](Cc2ccccc2)NC(=O)[C@H](CCCN)NC1=O)[C@@H](C)O [Compound 68] (Octanoyl-[Dab]T[dS][Dab][Orn][dF]T[Dab][Dab]T; lactam 4-C)"
measured_on = "Pseudomonas aeruginosa PAE19-3"
metric_name = "MIC"
result_value = 4

[[record]]
compound = "CCCCCCCC(=O)N[C@@H](CN)C(=O)N[C@H](C(=O)N[C@H](CO)C(=O)N[C@H]1CCNC(=O)[C@H]([C@@H](C)O)NC(=O)[C@H](CCN)NC(=O)[C@H](CCN)NC(=O)[C@H]([C@@H](C)O)NC(=O)[C@@H](Cc2ccccc2)NC(=O)[C@H](CCN)NC1=O)[C@@H](C)O [Compound 53] (Octanoyl-[Dap]T[dS][Dab][Dab][dF]T[Dab][Dab]T; lactam 4-C)"
measured_on = "Pseudomonas aeruginosa PAE19-3"
metric_name = "MIC"
result_value = 4

[[record]]
compound = "CC(C)CCCCC(=O)N[C@@H](CCN)C(=O)N[C@H](C(=O)N[C@H](CO)C(=O)N[C@H]1CCNC(=O)[C@H]([C@@H](C)O)NC(=O)[C@H](CCN)NC(=O)[C@H](CCNCS(=O)(=O)O)NC(=O)[C@H]([C@@H](C)O)NC(=O)[C@@H](Cc2ccccc2)NC(=O)[C@H](CCN)NC1=O)[C@@H](C)O [Compound 110] ({Heptanoyl(6-Me)}-[Dab]T[dS][Dab][Dab][dF]T[Dab(CH2SO3H)][Dab]T; lactam 4-C)"
measured_on = "Pseudomonas aeruginosa PAE19-3"
metric_name = "MIC"
result_value = 0.5

[[record]]
compound = "CC[C@H](C)CCCCC(=O)N[C@@H](CCN)C(=O)N[C@H](C(=O)N[C@H](CO)C(=O)N[C@H]1CCNC(=O)[C@H]([C@@H](C)O)NC(=O)[C@H](CCN)NC(=O)[C@H](CCN)NC(=O)[C@H]([C@@H](C)O)NC(=O)[C@@H](Cc2ccccc2)NC(=O)[C@H](CCCN)NC1=O)[C@@H](C)O [Compound 66] (X1-[Dab]T[dS][Dab][Orn][dF]T[Dab][Dab]T; lactam 4-C)"
measured_on = "Pseudomonas aeruginosa PAE19-3"
metric_name = "MIC"
result_value = 4

[[record]]
compound = "CCCCCCCC(=O)N[C@@H](CCCN)C(=O)N[C@H](C(=O)N[C@H](CO)C(=O)N[C@H]1CCNC(=O)[C@H]([C@@H](C)O)NC(=O)[C@H](CCN)NC(=O)[C@H](CCN)NC(=O)[C@H]([C@@H](C)O)NC(=O)[C@@H](Cc2ccccc2)NC(=O)[C@H](CCN)NC1=O)[C@@H](C)O [Compound 58] (Octanoyl-[Orn]T[dS][Dab][Dab][dF]T[Dab][Dab]T; lactam 4-C)"
measured_on = "Pseudomonas aeruginosa PAE19-3"
metric_name = "MIC"
result_value = 4


Which MIC reading was recorded for the compound CC(C)CCCCC(=O)N[C@@H](CCN)C(=O)N[C@H](C(=O)N[C@@H](CN)C(=O)N[C@H]1CCNC(=O)[C@H]([C@@H](C)O)NC(=O)[C@H](CCN)NC(=O)[C@H](CCN)NC(=O)[C@H](CC(C)C)NC(=O)[C@@H](Cc2ccccc2)NC(=O)[C@H](CCN)NC1=O)[C@@H](C)O [Compound 37] ({Heptanoyl(6-Me)}-[Dab]T[Dap][Dab][Dab][dF]L[Dab][Dab]T; lactam 4-C) ?
0.25

Which MIC reading was recorded for the compound CC(C)CCCCC(=O)N[C@@H](CCN)C(=O)N[C@H](C(=O)N[C@@H](CCCN)C(=O)N[C@H]1CCNC(=O)[C@H]([C@@H](C)O)NC(=O)[C@H](CCN)NC(=O)[C@H](CCN)NC(=O)[C@H]([C@@H](C)O)NC(=O)[C@@H](Cc2ccccc2)NC(=O)[C@H](CCN)NC1=O)[C@@H](C)O [Compound 27] ({Heptanoyl(6-Me)}-[Dab]T[Orn][Dab][Dab][dF]T[Dab][Dab]T; lactam 4-C) ?
0.25

Which MIC reading was recorded for the compound CCCCCCCCC(=O)N[C@@H](CCN)C(=O)N[C@H](C(=O)N[C@H](CO)C(=O)N[C@H]1CCNC(=O)[C@H]([C@@H](C)O)NC(=O)[C@H](CCN)NC(=O)[C@H](CCN)NC(=O)[C@H]([C@@H](C)O)NC(=O)[C@@H](Cc2ccccc2)NC(=O)[C@H](CCCN)NC1=O)[C@@H](C)O [Compound 70] (Nonanoyl-[Dab]T[dS][Dab][Orn][dF]T[Dab][Dab]T; lactam 4-C) ?
8

Which MIC reading was recorded for the compound CC[C@H](C)CCCCC(=O)N[C@@H](CCN)C(=O)N[C@H](C(=O)N[C@H](CN)C(=O)N[C@H]1CCNC(=O)[C@H]([C@@H](C)O)NC(=O)[C@H](CCN)NC(=O)[C@H](CCN)NC(=O)[C@H](CC(C)C)NC(=O)[C@@H](Cc2ccccc2)NC(=O)[C@H](CCN)NC1=O)[C@@H](C)O [Compound 31] (X1-[Dab]T[dDap][Dab][Dab][dF]L[Dab][Dab]T; lactam 4-C) ?
0.25
